Below, each of the binders is paired with its reported t½ Ratio pH7.4/pH6.0 value.
- system.name: T1, human C5 (human, UniProt P01031 19-1676)
- T1 construct: native C5 purified from plasma (EMD) in the Biacore and Octet assays, C5 of normal human serum in the CDC and hemolysis assays; two chains (alpha and beta); also called hC5; complement factor 5
- measurement.protocol: SPR (Biacore), mAb captured, dissociation of human C5 at pH7.4 vs pH6.0, 37°C
measured.parameter: t½ Ratio pH7.4/pH6.0

binder="H4H11686N (antibody, human IgG4, V domains shown, tested with H4H prefix (human IgG4 Fc with S108P hinge mutation); also called H2M11686N) VH: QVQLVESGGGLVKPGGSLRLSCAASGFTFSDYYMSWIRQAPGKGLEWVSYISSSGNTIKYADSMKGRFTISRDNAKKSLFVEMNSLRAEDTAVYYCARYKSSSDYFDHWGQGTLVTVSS VL: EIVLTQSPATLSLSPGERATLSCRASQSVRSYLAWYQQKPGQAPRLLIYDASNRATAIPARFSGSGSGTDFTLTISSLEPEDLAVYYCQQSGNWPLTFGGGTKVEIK" censoring_sign== numeric_readout=0.8
binder="H4H12170P (antibody, human IgG4, V domains shown, H4H: human IgG4 Fc with S108P hinge mutation) VH: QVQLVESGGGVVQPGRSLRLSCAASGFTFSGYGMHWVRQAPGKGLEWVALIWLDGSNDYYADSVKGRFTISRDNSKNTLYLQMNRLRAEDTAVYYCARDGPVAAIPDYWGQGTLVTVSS VL: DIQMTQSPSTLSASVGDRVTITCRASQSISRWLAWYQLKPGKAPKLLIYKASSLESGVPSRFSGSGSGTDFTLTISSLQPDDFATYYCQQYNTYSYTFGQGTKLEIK" censoring_sign=≤ numeric_readout=0.2
binder="H4H12171P (antibody, human IgG4, V domains shown, H4H: human IgG4 Fc with S108P hinge mutation) VH: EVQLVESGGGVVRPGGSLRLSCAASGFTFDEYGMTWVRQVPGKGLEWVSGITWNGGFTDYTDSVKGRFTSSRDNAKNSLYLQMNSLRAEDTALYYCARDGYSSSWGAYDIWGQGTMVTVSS VL: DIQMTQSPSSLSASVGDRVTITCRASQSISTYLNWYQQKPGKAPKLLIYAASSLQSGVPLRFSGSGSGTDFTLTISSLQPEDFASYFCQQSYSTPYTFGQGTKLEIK" censoring_sign== numeric_readout=3.7

All figures here come from patent US20170355757A1.
